Data provenance: PubChem BioAssay

// reported inhibition for each item listed
# runDescription: inhibitors of the yeast RAM network, pilot screen, dse1pr::URA3 reporter, 5-FOA selection (AID 869);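 also: 0% = DMSO wells with no growth and 100% = 10 µM 1-NA-PP1 with full growth; RAM network block rescues cells from 5-FOA so hits raise OD615 growth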
# measurementConditions: S. cerevisiae dse1pr::URA3 5-FOA growth, OD615, 2 d; at 10 µM; active compounds read high; strain carries analog-sensitive mutant Cbk1 kinase

- compound: "CC1(C)CC(=O)N(CC(=O)N2CCN(c3ncccn3)CC2)c2ccccc2S1(=O)=O"
  inhibition, %: 0.48
- compound: "COc1cc(C(=O)NCc2ccco2)c(Br)c(OC)c1OC"
  inhibition, %: 0.865
- compound: "Cc1nnc(NC(=O)CSC2CCCCC2)s1"
  inhibition, %: 1.1
- compound: "CCOC(=O)C1CCCN(c2c(Nc3cccc(C)c3)c(=O)c2=O)C1 (stereo unspecified)"
  inhibition, %: -0.555
- compound: "CCN(CC)Cc1c[nH]c2c(C(=O)OC)cccc12"
  inhibition, %: 2
- compound: "Cc1ccc(S(=O)(=O)Cc2ccc(C(=O)N3CCN(c4ccc(F)cc4)CC3)o2)cc1"
  inhibition, %: 0.575
- compound: "CCC(=O)N1C(C(=O)N2CCCC2)CSC1c1ccc(OC)cc1 (stereo unspecified)"
  inhibition, %: -0.035
- compound: "Cc1[nH]c(=O)[nH]c(=O)c1S(=O)(=O)N1CCCC(C(=O)N2CCC(Cc3ccccc3)CC2)C1 (stereo unspecified)"
  inhibition, %: 0.385
- compound: "c1ccc(OCc2nn3c(-c4ccccn4)nnc3s2)cc1"
  inhibition, %: 1.48
- compound: "CCC1Oc2nc(SC)nnc2-c2ccccc2N1C(=O)c1ccccc1 (stereo unspecified)"
  inhibition, %: 1.03
- compound: "O=C(c1ccccc1)N1CCN(c2ccc(NCc3ccc4c(c3)OCO4)cc2)CC1"
  inhibition, %: 1.77
- compound: "CCOC(=O)N1CCC(NC(=O)CCc2c(C)nc3c(c(C)nn3-c3ccccc3)c2C)CC1"
  inhibition, %: 2.38
- compound: "O=C(CN1CCOc2ccccc21)N1CCC(Cc2ccccc2)CC1"
  inhibition, %: 1.46
- compound: "CC(=O)N(CCCN(C)C)CCC(C)CCC=C(C)C (stereo unspecified)"
  inhibition, %: 0.41
- compound: "Cn1c(=O)c2c(nc(NC3CCCCC3)n2Cc2ccccc2)n(C)c1=O"
  inhibition, %: 2.92
- compound: "CCc1cc(C(=O)COc2ccccc2F)c(O)cc1O"
  inhibition, %: -0.155
- compound: "O=C(COC(=O)c1cc2ccccc2o1)c1ccccc1"
  inhibition, %: -0.115
- compound: "COc1ccc(C(=O)N2CCN(C(=O)c3ccco3)CC2)cc1"
  inhibition, %: 1.56
- compound: "Cc1cc(C)cc(NC(=O)CSc2nnc(-c3ccccc3)n2N)c1"
  inhibition, %: 2.74
- compound: "CCOC(=O)c1c(N)sc(C(=O)N2CCCCCC2)c1C"
  inhibition, %: -0.305
- compound: "COc1ccc(S(=O)(=O)Nc2ccc3oc(C)c(C(=O)O)c3c2)cc1"
  inhibition, %: 1.54

* * *

# runDescription: inhibitors of the yeast RAM network, pilot screen, dse1pr::URA3 reporter, 5-FOA selection (AID 869);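 also: 0% = DMSO wells with no growth and 100% = 10 µM 1-NA-PP1 with full growth; RAM network block rescues cells from 5-FOA so hits raise OD615 growth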
# measurementConditions: S. cerevisiae dse1pr::URA3 5-FOA growth, OD615, 2 d; at 10 µM; active compounds read high; strain carries analog-sensitive mutant Cbk1 kinase

- molecule: "CC1Cc2nc(SCC(=O)NCc3ccco3)n(-c3ccccc3)c(=O)c2S1 (stereo not drawn)"
  inhibition [%]: 0.405
- molecule: "C=CCNC(=O)c1cnc2n(c1=O)CCS2"
  inhibition [%]: 1.68
- molecule: "O=C(NO)c1ccc(C(=O)N(C2CCCCC2)C2CCCCC2)cc1"
  inhibition [%]: 0.64
- molecule: "Cc1cc(C)nc(SCC(=O)Oc2ccc3oc(=O)cc(C)c3c2)n1"
  inhibition [%]: 1.63
- molecule: "COc1ccc(OC)c(S(=O)(=O)n2nc(-c3ccccc3)cc2N)c1"
  inhibition [%]: 0.795
- molecule: "CCCCCCc1c(O)nc(SCC(=O)O)[nH]c1=O"
  inhibition [%]: 2.51
- molecule: "CC(C)Sc1nc2c(c(=O)n1C)SC(C)C2 (stereo not drawn)"
  inhibition [%]: 1.61
- molecule: "CC(C)CCN(C)C1CCN(C(=O)Nc2c(F)cccc2F)CC1"
  inhibition [%]: 1.56

* * *

# runDescription: inhibitors of the yeast RAM network, pilot screen, dse1pr::URA3 reporter, 5-FOA selection (AID 869);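 also: 0% = DMSO wells with no growth and 100% = 10 µM 1-NA-PP1 with full growth; RAM network block rescues cells from 5-FOA so hits raise OD615 growth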
# measurementConditions: S. cerevisiae dse1pr::URA3 5-FOA growth, OD615, 2 d; at 10 µM; active compounds read high; strain carries analog-sensitive mutant Cbk1 kinase

- compound: "c1ccc(-n2ncc3c(NCc4cccnc4)ncnc32)cc1"
  inhibition, %: 2.49
- compound: "N=c1n(CCO)c2ccccc2n1CCOc1ccc(Cl)cc1Cl"
  inhibition, %: 1
- compound: "CCCCC(CC)CNC(=O)CCS(=O)(=O)c1cccc2nsnc12 (stereo unspecified)"
  inhibition, %: 3.19
- compound: "O=C(Nc1sc2c(c1C(=O)O)CCCC2)c1cccs1"
  inhibition, %: -1.22
- compound: "O=C(NC1CSC/C1=N\\O)c1ccccc1 (stereo unspecified)"
  inhibition, %: 1.17
- compound: "O=C(c1cc(-c2ccccc2O)on1)N1CCCC1"
  inhibition, %: 3.37
- compound: "CN1CCN(CCCNC(=O)c2cc3c(-c4ccc(Cl)cc4)nn(C)c3s2)CC1"
  inhibition, %: 0.445
- compound: "O=S(=O)(c1ccc(Cl)c(Cl)c1)N1CCc2nc3ccccc3n2CC1"
  inhibition, %: 1.75
- compound: "COc1ccc(C(=O)OCCN2C(=O)c3ccccc3C2=O)cc1"
  inhibition, %: 0.645
- compound: "CCCCNC(=O)CC1Nc2ccccc2NC1=O (stereo unspecified)"
  inhibition, %: 0.83
- compound: "CN1CCN(C(=O)C2CCCCC2C(=O)O)CC1 (stereo unspecified)"
  inhibition, %: 2.02
- compound: "O=C1c2oc3ccc(F)cc3c(=O)c2C(c2ccncc2)N1CCN1CCOCC1 (stereo unspecified)"
  inhibition, %: 1.26
- compound: "Cc1onc(-c2ccccc2Cl)c1C(=O)Nc1ccc(OCC(=O)N2CCOCC2)cc1"
  inhibition, %: 1.5
- compound: "Cc1ccc(SCC(=O)NCC(C)C)cc1"
  inhibition, %: 0.42
- compound: "O=C1NC(c2cccs2)C(C(=O)c2ccccc2)C(O)(C(F)(F)F)N1 (stereo unspecified)"
  inhibition, %: 0.61
- compound: "O=C(NCCc1ccccc1)c1ccncc1"
  inhibition, %: 1.67

* * *

// reported growth inhibition for each item listed
# runDescription: Restrictive medium S. cerevisiae growth inhibition, OD615, pilot screen of yeast lifespan reduction project, restrictive growth control (AID 706);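 also: modified DeaD lifespan yeast strain shifted to restrictive glucose medium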
# measurementConditions: OD615, 48 h, at 10 µM, active compounds read high
readoutKind: growth inhibition (%)

- chemicalString: "Cc1cc(=O)[nH]c(Cc2ccc(OC(C)C)cc2)n1"
  readoutKind: "growth inhibition"
  measurementUnit: "%"
  measuredResult: -15.4
- chemicalString: "CCC(CC)c1nnc(NC(=O)c2c(-c3ccccc3)noc2C)s1"
  readoutKind: "growth inhibition"
  measurementUnit: "%"
  measuredResult: 3.94
- chemicalString: "CCCCN(C)C(=O)c1c[nH]c2ccc(S(=O)(=O)N3CCOCC3)cc2c1=O"
  readoutKind: "growth inhibition"
  measurementUnit: "%"
  measuredResult: -15.5
- chemicalString: "COc1ccc(OCc2nnc3n2N=C(c2ccc(OC)cc2)CS3)cc1"
  readoutKind: "growth inhibition"
  measurementUnit: "%"
  measuredResult: 57.4
- chemicalString: "S=c1sc2c(N3CCOCC3)ncnc2n1-c1ccccc1"
  readoutKind: "growth inhibition"
  measurementUnit: "%"
  measuredResult: 8.65

* * *

# runDescription: inhibitors of the yeast RAM network, pilot screen, dse1pr::URA3 reporter, 5-FOA selection (AID 869);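 also: 0% = DMSO wells with no growth and 100% = 10 µM 1-NA-PP1 with full growth; RAM network block rescues cells from 5-FOA so hits raise OD615 growth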
# measurementConditions: S. cerevisiae dse1pr::URA3 5-FOA growth, OD615, 2 d; at 10 µM; active compounds read high; strain carries analog-sensitive mutant Cbk1 kinase
Active and inactive are the calls of the source.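 How the source made its calls: active means inhibition over a set limit, the all-compound mean plus 3 SD, in both replicate runs; inconclusive means over that limit in just one replicate run; inactive means at or under that limit in both runs.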
// reported inhibition for each item listed

- compound: "COc1ccc(NC(C)=O)cc1NC(=O)CSc1nnc(-c2ccncc2)n1C"
  inhibition: "0.24% (inactive)"
- compound: "COc1ccccc1NC(=O)Nc1ccnn1C1CCCCC1"
  inhibition: "2.41% (inactive)"
- compound: "C=CCn1c(CSc2nc3ccccc3s2)nnc1SCC(=O)NCc1ccco1"
  inhibition: "0.105% (inactive)"
- compound: "COc1ccc(S(=O)(=O)N2CCCC2C(=O)Nc2ccc(C(C)=O)cc2)cc1 (stereo not drawn)"
  inhibition: "2.13% (inactive)"
- compound: "COc1cccc(N(CC(=O)NCc2cccnc2)S(C)(=O)=O)c1"
  inhibition: "0.625% (inactive)"
- compound: "CCC(=O)Nc1nc2ccc3nc(C)sc3c2s1"
  inhibition: "0.415% (inactive)"
- compound: "CN1C(=O)c2cccc(NC(=O)Cc3ccccc3)c2C1=O"
  inhibition: "0.625% (inactive)"
- compound: "COC(=O)C(C(=O)OC)C(C(C)C)C(C(=O)OC)C(=O)OC"
  inhibition: "1.07% (inactive)"
- compound: "COc1ccccc1N(C(=O)NCc1ccccc1)C1=NCC(C)S1 (stereo not drawn)"
  inhibition: "2.22% (inactive)"
- compound: "COc1cc2c(cc1OC)C(C(=O)Nc1ccc3c(c1)OCCO3)C(c1cccnc1)N(C)C2=O (stereo not drawn)"
  inhibition: "1.38% (inactive)"
- compound: "O=C(CCS(=O)(=O)c1cccc2nonc12)NC1CCCCCC1"
  inhibition: "0.855% (inactive)"
- compound: "Cc1ccc(S(=O)(=O)/N=C/c2ccco2)cc1"
  inhibition: "0.625% (inactive)"
- compound: "COc1cc2[nH]c(=O)n(CCC(=O)NC3CCN(Cc4ccccc4)CC3)c(=O)c2cc1OC"
  inhibition: "2.09% (inactive)"
- compound: "COCCCNC(=O)CN(c1ccc(Cl)c(Cl)c1)S(C)(=O)=O"
  inhibition: "0.96% (inactive)"
- compound: "COc1cc(NC(=O)C2CCC(CNc3c(N4CCCCC4)c(=O)c3=O)CC2)cc(OC)c1 (stereo not drawn)"
  inhibition: "1.79% (inactive)"
- compound: "CCOC(=O)N1CCN(C(=O)CS(=O)Cc2nc(-c3ccc(C)cc3)oc2C)CC1 (stereo not drawn)"
  inhibition: "1.68% (inactive)"
- compound: "Nn1c(SCc2nc3ccccc3[nH]2)nnc1-c1cccnc1"
  inhibition: "1.13% (inactive)"
- compound: "CCc1ccc(C2CC(c3ccc(Cl)cc3)n3nc(N)nc3N2)cc1 (stereo not drawn)"
  inhibition: "1.53% (inactive)"
- compound: "COc1cc2c(cc1OC)C(c1ccco1)CC(=O)N2 (stereo not drawn)"
  inhibition: "1.06% (inactive)"
- compound: "C=CCN1C(=Nc2ccccc2)SC/C1=C\\C(=O)OC"
  inhibition: "0.81% (inactive)"
- compound: "Cc1cc2oc(C(=O)NCc3ccncc3)c(C)c2cc1C"
  inhibition: "0.7% (inactive)"
- compound: "CCOc1ccc(OCC)c(NC(=O)C2CCCN2S(=O)(=O)c2cccc3cccnc23)c1 (stereo not drawn)"
  inhibition: "-0.48% (inactive)"
- compound: "Cc1cc(=O)[nH]c(SCc2cc(=O)n3nc(C)sc3n2)n1"
  inhibition: "1.32% (inactive)"
- compound: "CCCOc1nc2c(c(=O)n(C)c(=O)n2C)n1CCC"
  inhibition: "1.4% (inactive)"
- compound: "COc1ccccc1-c1c(C)nn2c(N3CCN(c4ccccc4OC)CC3)cc(C)nc12"
  inhibition: "0.775% (inactive)"
- compound: "Cc1cc(C)cc(OCC(O)CN2C(=O)NC(C)(C)C2=O)c1 (stereo not drawn)"
  inhibition: "-0.255% (inactive)"
- compound: "c1ccc(Cn2ncc3ccccc32)cc1"
  inhibition: "-0.165% (inactive)"
- compound: "CC1CCN(C(=O)c2cc(-c3ccccc3O)on2)CC1"
  inhibition: "0.335% (inactive)"
- compound: "O=C(NCC(c1cccnc1)N1CCN(c2ccccc2F)CC1)c1ccccc1 (stereo not drawn)"
  inhibition: "1.75% (inactive)"
- compound: "CCN(CCCNC(=O)CN1C(=O)COc2ccccc21)c1ccccc1"
  inhibition: "1.61% (inactive)"
- compound: "Cc1ccc(S(=O)(=O)N=C2SCCCS2)cc1"
  inhibition: "1.31% (inactive)"
- compound: "CCCOC(=O)C1C2C=CC3(CN(c4ccc(Cl)c(F)c4)C(=O)C13)O2 (stereo not drawn)"
  inhibition: "-0.06% (inactive)"
- compound: "O=C(c1ccccc1F)N1CCN(S(=O)(=O)c2ccc3c(c2)OCCO3)CC1"
  inhibition: "3.16% (inactive)"
